system: 885724-159-R-J1-PDC KRAS PDC multicell spheroid viability; test: Anticancer human tumor 885724-159-R-J1-PDC patient-derived pancreatic adenocarcinoma cell line growth inhibition [KRAS2]; settings: second compound 10 µM; first compound 0.1 µM; active = viability on the fitted dose curve at most 10% of control; inactive = the rest;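 also: spheroids exposed to agents for 7 days before readout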
Answer with one of the outcomes 1 (yes) (active), 0 (no) (inactive)

* CC(C)NCC(C(=O)N1CCN(c2ncnc3c2C(C)CC3O)CC1)c1ccc(Cl)cc1 (stereo not given) + COc1cc2nc(C)nc(NC(C)c3cc(N)cc(C(F)(F)F)c3)c2cc1OC1CCOC1 | 0 (no)
* Cn1ncnc1[C@H]1c2n[nH]c(=O)c3cc(F)cc(c23)N[C@@H]1c1ccc(F)cc1 + CC1OCC2(CCN(c3cnc(Sc4ccnc(N)c4Cl)c(N)n3)CC2)C1N | 0 (no)
* CC1(C)CCC(CN2CCN(c3ccc(C(=O)NS(=O)(=O)c4ccc(NCC5CCOCC5)c([N+](=O)[O-])c4)c(Oc4cnc5[nH]ccc5c4)c3)CC2)=C(c2ccc(Cl)cc2)C1 + C=CC(=O)N1CCN(c2nc(=O)n(-c3c(C)ccnc3C(C)C)c3nc(-c4c(O)cccc4F)c(F)cc23)C(C)C1 | 0 (no)
* CC1(C)CCC(CN2CCN(c3ccc(C(=O)NS(=O)(=O)c4ccc(NCC5CCOCC5)c([N+](=O)[O-])c4)c(Oc4cnc5[nH]ccc5c4)c3)CC2)=C(c2ccc(Cl)cc2)C1 + CNCc1ccccc1-c1csc(C(C)Nc2nc(C)nc3cc(OC)c(OC)cc23)c1 | 1 (yes)
* COC(=O)c1ccc2c(C(=Nc3ccc(N(C)C(=O)CN4CCN(C)CC4)cc3)c3ccccc3)c(O)[nH]c2c1 + COc1cc2nc(C)nc(NC(C)c3cc(N)cc(C(F)(F)F)c3)c2cc1OC1CCOC1 | 0 (no)

Q) For COC(=O)c1ccc2c(C(=Nc3ccc(N(C)C(=O)CN4CCN(C)CC4)cc3)c3ccccc3)c(O)[nH]c2c1 + CNCc1ccccc1-c1csc(C(C)Nc2nc(C)nc3cc(OC)c(OC)cc23)c1 , what call appears in the results of this test?
A) 1 (yes)

The origin of these recorded values is PubChem BioAssay AID1963861.
